- protocol_description: self-splicing fitness, log relative to wild type (ln ratio); higher = more splicing; Tetrahymena group I intron in knt gene, E. coli kanamycin selection, DiMSum; sequences stand for … in CUCUCU…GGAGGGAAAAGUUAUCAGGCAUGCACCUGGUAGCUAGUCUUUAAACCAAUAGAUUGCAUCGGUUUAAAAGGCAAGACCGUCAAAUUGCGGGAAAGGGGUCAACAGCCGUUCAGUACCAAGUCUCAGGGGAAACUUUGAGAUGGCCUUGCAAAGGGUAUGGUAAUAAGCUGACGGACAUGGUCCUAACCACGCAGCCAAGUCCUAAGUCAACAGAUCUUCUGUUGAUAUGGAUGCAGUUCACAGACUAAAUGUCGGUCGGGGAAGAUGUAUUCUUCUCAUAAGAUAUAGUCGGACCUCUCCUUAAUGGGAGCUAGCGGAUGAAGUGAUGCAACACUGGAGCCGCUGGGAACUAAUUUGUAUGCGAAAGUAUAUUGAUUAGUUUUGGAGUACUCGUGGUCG;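 further: selection with 25 µg/mL kanamycin versus none on LB agar overnight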
- protocol_conditions: 37 °C
property_measured: self-splicing fitness (ln)

# example entries with known answers
* CAUAAGCAAUAUUACGUUGG | -1.26
* CCAGAGCAAUAUUACGCGUC | -3
* ACGUAGCAAUAUUACGAAGG | -3.97
* UACAAGCAAUAUUACGAUCA | 0.387
* AGAUAGCAAUAUUACGUCUA | -0.474

Now turn to the next sequence.
Record request: self-splicing fitness (ln) value, item "CUACAGCAAUAUUACGUAUU"
-2.94

---

Field: self-splicing fitness (ln). Provide a value for each of the sequences that follow.
- protocol_description: self-splicing fitness, log relative to wild type (ln ratio); higher = more splicing; Tetrahymena group I intron in knt gene, E. coli kanamycin selection, DiMSum; sequences stand for … in CUCUCU…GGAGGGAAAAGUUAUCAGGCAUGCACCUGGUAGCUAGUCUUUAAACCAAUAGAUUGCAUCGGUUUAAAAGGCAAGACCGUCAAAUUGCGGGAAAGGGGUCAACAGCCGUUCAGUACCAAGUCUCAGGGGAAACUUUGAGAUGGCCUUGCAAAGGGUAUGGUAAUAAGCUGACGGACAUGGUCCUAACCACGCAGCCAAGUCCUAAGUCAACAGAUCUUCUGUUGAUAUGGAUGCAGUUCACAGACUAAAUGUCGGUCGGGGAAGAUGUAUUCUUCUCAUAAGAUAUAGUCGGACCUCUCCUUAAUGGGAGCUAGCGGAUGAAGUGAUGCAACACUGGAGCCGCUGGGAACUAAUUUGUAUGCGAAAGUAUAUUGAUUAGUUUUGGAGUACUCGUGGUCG
- protocol_conditions: 30 °C
Numbers only.

* GCAGAGCAAUAUUACGGAUG | -2.76
* AUAUAGCAAUAUUACGGAAG | -3.08

I would be grateful if you could provide self-splicing fitness (ln) for each of the following entries.
1. AUCAAGCAAUAUUACGUGCA
2. AAUUAGCAAUAUUACGACAA
3. UAGCAGCAAUAUUACGGUCU
4. AGAUAGCAAUAUUACGUGCA
5. GUGUAGCAAUAUUACGGGCG
6. AUGAAGCAAUAUUACGCCGG

1: -0.986; 2: -1.79; 3: -1.22; 4: -0.725; 5: -2.61; 6: -0.936

I would be grateful if you could provide self-splicing fitness (ln) for each of the following entries.
1. UGGGAGCAAUAUUACGUCUG
2. UUCAAGCAAUAUUACGGUGA
3. CUGUAGCAAUAUUACGUAAU
4. CGCGAGCAAUAUUACGUCAG
5. GGGAAGCAAUAUUACGCAUC
6. AGUGAGCAAUAUUACGCGAA
7. UCAGAGCAAUAUUACGACCU

1: -1.46; 2: -0.763; 3: -3.88; 4: -1.19; 5: -2.36; 6: -2.36; 7: -2.87

I would be grateful if you could provide self-splicing fitness (ln) for each of the following entries.
1. GCUCAGCAAUAUUACGGAAC
2. UUGGAGCAAUAUUACGAUAG
3. AGGGAGCAAUAUUACGGACU
4. GGUCAGCAAUAUUACGGAUU
5. GACGAGCAAUAUUACGCUUA
6. AAUCAGCAAUAUUACGUGGG
7. UAUAAGCAAUAUUACGAUAU

[-0.677, -2.56, -1.03, -0.77, -2.29, -2.12, -2.9]

I would be grateful if you could provide self-splicing fitness (ln) for each of the following entries.
1. AGUCAGCAAUAUUACGGCCC
2. UACAAGCAAUAUUACGUUUG
3. GUACAGCAAUAUUACGGCCG
4. AAGUAGCAAUAUUACGUUCG
5. UGGUAGCAAUAUUACGGCGA
6. GGGGAGCAAUAUUACGAUGU

-0.436
-3.72
-1.89
-1.35
-0.171
-1.64

---

Field: self-splicing fitness (ln). Provide a value for each of the sequences that follow.
- protocol_description: self-splicing fitness, log relative to wild type (ln ratio); higher = more splicing; Tetrahymena group I intron in knt gene, E. coli kanamycin selection, DiMSum; sequences stand for … in CUCUCU…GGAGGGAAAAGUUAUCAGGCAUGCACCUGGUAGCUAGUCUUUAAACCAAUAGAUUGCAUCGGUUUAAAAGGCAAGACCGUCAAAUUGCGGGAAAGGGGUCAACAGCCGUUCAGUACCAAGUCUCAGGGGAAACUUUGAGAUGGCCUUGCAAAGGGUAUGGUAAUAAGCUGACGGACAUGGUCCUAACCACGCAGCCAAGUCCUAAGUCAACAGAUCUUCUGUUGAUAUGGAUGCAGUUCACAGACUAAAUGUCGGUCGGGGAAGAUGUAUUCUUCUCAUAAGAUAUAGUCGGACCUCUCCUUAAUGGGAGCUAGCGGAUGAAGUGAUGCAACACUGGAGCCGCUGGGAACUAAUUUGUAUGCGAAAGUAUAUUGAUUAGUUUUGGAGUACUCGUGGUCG
- protocol_conditions: 30 °C
One number for each entry.

* AGUAAGCAAUAUUACGUUCU | -0.729
* GGACAGCAAUAUUACGCCAA | -0.506
* CCUAAGCAAUAUUACGUUAC | -4.69
* AUACAGCAAUAUUACGACUG | -1.52
* AGGAAGCAAUAUUACGUGCG | -1.01

I would be grateful if you could provide self-splicing fitness (ln) for each of the following entries.
1. CUCAAGCAAUAUUACGUUCU
2. UGCGAGCAAUAUUACGUGGA
3. ACUUAGCAAUAUUACGUUCC
4. CGGAAGCAAUAUUACGAUUA
5. GGUGAGCAAUAUUACGCUAU
6. GAAGAGCAAUAUUACGGGCG
7. CUACAGCAAUAUUACGUCAG

-3.9
-3.04
-2.16
-1.17
-1.77
-3.54
-1.55

---

- protocol_description: self-splicing fitness, log relative to wild type (ln ratio); higher = more splicing; Tetrahymena group I intron in knt gene, E. coli kanamycin selection, DiMSum; sequences stand for … in CUCUCU…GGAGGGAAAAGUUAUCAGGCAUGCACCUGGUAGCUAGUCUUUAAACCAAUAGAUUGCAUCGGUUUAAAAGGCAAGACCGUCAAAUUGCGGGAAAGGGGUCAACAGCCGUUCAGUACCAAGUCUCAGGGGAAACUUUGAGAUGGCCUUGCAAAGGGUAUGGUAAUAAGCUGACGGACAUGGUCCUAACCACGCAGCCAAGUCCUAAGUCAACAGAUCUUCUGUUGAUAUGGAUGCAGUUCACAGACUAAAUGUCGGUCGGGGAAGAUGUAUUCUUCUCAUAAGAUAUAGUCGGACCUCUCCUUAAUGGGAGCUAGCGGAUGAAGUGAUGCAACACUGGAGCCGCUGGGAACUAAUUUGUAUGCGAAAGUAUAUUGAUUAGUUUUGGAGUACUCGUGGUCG
- protocol_conditions: 37 °C
property_measured: self-splicing fitness (ln)
One number for each entry.

# example entries with known answers
* UAGUAGCAAUAUUACGAGGA | -1.81
* AAGCAGCAAUAUUACGCUCG | 0.286
* CAAAAGCAAUAUUACGGUUC | -1.83

I would be grateful if you could provide self-splicing fitness (ln) for each of the following entries.
1. AUUAAGCAAUAUUACGUGAA
2. UUCCAGCAAUAUUACGCCGA
3. UACUAGCAAUAUUACGUCUA
4. AAUUAGCAAUAUUACGACAA
5. GAUAAGCAAUAUUACGGCCC
6. GGUAAGCAAUAUUACGCCCU
7. AAAAAGCAAUAUUACGCACG

[-1.5, 0.309, -0.565, 0.209, -0.0157, -1.35, -0.508]

---

- protocol_description: self-splicing fitness, log relative to wild type (ln ratio); higher = more splicing; Tetrahymena group I intron in knt gene, E. coli kanamycin selection, DiMSum; sequences stand for … in CUCUCU…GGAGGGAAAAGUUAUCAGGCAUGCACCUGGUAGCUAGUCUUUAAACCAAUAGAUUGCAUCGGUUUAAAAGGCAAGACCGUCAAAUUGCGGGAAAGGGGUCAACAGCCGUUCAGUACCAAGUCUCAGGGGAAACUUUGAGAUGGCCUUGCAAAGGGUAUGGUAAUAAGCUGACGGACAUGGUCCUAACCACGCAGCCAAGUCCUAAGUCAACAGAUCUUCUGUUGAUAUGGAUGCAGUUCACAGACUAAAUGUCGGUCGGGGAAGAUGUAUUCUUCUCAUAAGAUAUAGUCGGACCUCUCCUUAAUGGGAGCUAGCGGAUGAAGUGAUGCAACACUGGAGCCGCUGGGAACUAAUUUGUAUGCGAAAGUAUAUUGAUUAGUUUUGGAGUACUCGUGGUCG
- protocol_conditions: 30 °C
property_measured: self-splicing fitness (ln)
Give bare numbers.

# example entries with known answers
* CCCGAGCAAUAUUACGGAGG | -3.84
* GAAAAGCAAUAUUACGGCCA | -1.03
* GACGAGCAAUAUUACGUAGA | -2.81
* AAUCAGCAAUAUUACGGCAU | -0.109
* UUUCAGCAAUAUUACGCUGA | -3.32

I would be grateful if you could provide self-splicing fitness (ln) for each of the following entries.
1. AACUAGCAAUAUUACGGGAG
2. CACAAGCAAUAUUACGAUAA

1: -1.35; 2: -4.26

I would be grateful if you could provide self-splicing fitness (ln) for each of the following entries.
1. ACCUAGCAAUAUUACGUCGU
2. GGAUAGCAAUAUUACGGGAC
3. ACAAAGCAAUAUUACGGGAA
4. UUCCAGCAAUAUUACGCGCU
5. UGGAAGCAAUAUUACGAUGG
6. ACUCAGCAAUAUUACGCUAA
7. GCACAGCAAUAUUACGUAGU

1. -0.733
2. -2.5
3. -2.44
4. -3.9
5. -2.38
6. -1.63
7. -0.976

I would be grateful if you could provide self-splicing fitness (ln) for each of the following entries.
1. CGCCAGCAAUAUUACGACCG
2. GUAAAGCAAUAUUACGCGGG
3. GUUAAGCAAUAUUACGGGGU
4. GCGUAGCAAUAUUACGGGCC
5. GACGAGCAAUAUUACGCGUU
6. GGCUAGCAAUAUUACGAGUG
7. AUGUAGCAAUAUUACGCCCA

1: -0.693; 2: -1.74; 3: -2.73; 4: -3.1; 5: -3.74; 6: -0.589; 7: -0.905

Record request: self-splicing fitness (ln) value, item "UUCAAGCAAUAUUACGUGUU"
-3.23
